Test system: MDA-MB-231
Assay: NCI tumour cell line growth inhibition, 48 h
Activity calls are given as the source filed them. No stated cut-off is given here; in the data, active = GI50 up to about 1.1 µM and inactive = higher.
measured metric: GI50

>>> val("CC(=O)O[C@@H]1C[C@@]2(C)[C@@H]3CC=C4[C@@H](C[C@H](O)C(=O)C4(C)C)[C@]3(C)C(=O)C[C@]2(C)[C@H]1[C@@](C)(O)C(=O)/C=C/C(C)(C)OC(C)=O")
"2.78 µM (inactive)"
>>> val("O=C(O)/C=C\\C(=O)Nc1ccc2c(c1)-c1ccccc1C2")
"> 100 µM (inactive)"
>>> val("CCN(CC)C(=O)Cn1c(-c2ccccc2)cc2ccccc21")
"37.5 µM (inactive)"
>>> val("COc1ccc(C2=C(OC(C)=O)c3cccn3-c3ccc(Cl)cc3S2)cc1")
"3.72 µM (inactive)"
>>> val("O=C1CC(c2ccccc2)n2c(nc3ccccc32)N1 (stereo not given)")
"> 100 µM (inactive)"
>>> val("FC(F)(F)c1nc2cc(SSc3cc4nc(C(F)(F)F)[nH]c4cc3Cl)c(Cl)cc2[nH]1")
"> 100 µM (inactive)"
>>> val("CCN(CC)c1ncnc2c1ncn2CCNC(CO)(CO)CO")
"> 100 µM (inactive)"
>>> val("O=c1[nH]c(N/N=C\\C(=N/Nc2nc3ccccc3c(=O)[nH]2)C(O)C(O)C(O)CO)nc2ccccc12 (stereo not given)")
"> 100 µM (inactive)"
>>> val("COc1cc(/C=C2/SC(c3ccccc3)N(c3ccccc3)C2=O)cc(OC)c1OC (stereo not given)")
"> 100 µM (inactive)"
>>> val("CC1CC(Br)C(=O)O1 (stereo not given)")
"> 100 µM (inactive)"
>>> val("COc1cc(C2C3C=CC=C4CC=CC(=C43)C3CCC(=O)N32)cc(OC)c1OC (stereo not given)")
"> 100 µM (inactive)"
>>> val("Nc1nc2c(ncn2Cc2ccc(CO)cc2)c(=O)[nH]1")
"> 100 µM (inactive)"
>>> val("O=C1C(/C=C/c2ccc(Cl)cc2)=NNC2N1N=C1NC(=O)C3(NN12)c1ccccc1-c1ccccc13 (stereo not given)")
"> 100 µM (inactive)"
>>> val("CC(=O)O[C@H]1CC2C(C3CC[C@H](C(C)CCC(N)=O)[C@]31C)[C@H](OC(C)=O)C[C@@H]1CC3(CC[C@]21C)OOC1(CCC(C)CC1)OO3 (stereo not given in full)")
"2.21 µM (inactive)"
>>> val("COc1ccc2oc(=N)c(C(=O)Nc3cccc4ccccc34)cc2c1")
"26 µM (inactive)"
>>> val("COc1ccc(C2C(C(=O)c3ccccc3)=C(O)C(O)(CC(=O)c3ccccc3)N2c2ccc(OC)cc2)cc1 (stereo not given)")
"19.2 µM (inactive)"
>>> val("COc1cc2c(cc1OC)-c1cc3ccccc3c(=O)n1CCC2")
"5.47 µM (inactive)"
>>> val("Cc1cc(Oc2cnc(=O)[nH]c2)cs1")
"> 100 µM (inactive)"
>>> val("OCc1cn(Cc2ccccc2)c2ccccc12")
"19.5 µM (inactive)"
>>> val("C=C1C[C@@H](O)[C@@H](Br)C(C)(C)[C@@]12C=CC(O)(CBr)CC2 (stereo not given in full)")
"29 µM (inactive)"
>>> val("COc1cc2c(c(OC)c1OC)-c1ccc(SC)cc1C(O)CC2 (stereo not given)")
"0.394 µM (active)"
>>> val("C#CC(C)(C)Oc1cc(OC)c2c(=O)c3ccccc3n(C)c2c1")
"15.2 µM (inactive)"
>>> val("O=S(=O)(O)c1ccc2c(/N=N/c3ccc(S(=O)(=O)O)c4ccccc34)c(O)c(S(=O)(=O)O)cc2c1")
"> 100 µM (inactive)"
>>> val("C=CC(C)(C)N[C@@H](C(=O)N1CCC[C@H]1c1nc(-c2nc(C(=O)OCC=C(C)C)c(C)o2)c(C)o1)C(C)C")
"21.3 µM (inactive)"
>>> val("CCOC(=O)C1=C(C)N(Cc2ccc(Cl)cc2Cl)C2(O)C=CC(=O)C3C(=O)N(c4ccccc4)C(=O)C132 (stereo not given)")
"2.1 µM (inactive)"
>>> val("Oc1ccc2c(c1)-c1c(c3ccccc3n1CCN1CCOCC1)CC2")
"> 100 µM (inactive)"
>>> val("NNc1nc2ccccc2s1")
"> 100 µM (inactive)"
>>> val("O=c1c2ccccc2[se]n1-c1cccnc1")
"25.1 µM (inactive)"
>>> val("COc1ccc(-n2c(N)c(C#N)[nH]c2=O)cc1")
"> 10 µM (inactive)"
>>> val("CN(C(=O)c1ccc(Cl)cc1)C(=S)N1CCN(c2ccccc2)CC1")
"> 100 µM (inactive)"
